testedOn: Ca^2+-CaM pre-bound to the mammalian Cav1.2 IQ peptide (rat | human, UniProt P0DP29 1-149)
assayProcedure: ITC; Ca2+; CaM pre-bound to Cav1.2 IQ
assayEndpoint: Kd (nM)
Answer in nM, number only, no unit symbol.

Notebook: SWQAAIDAARQAKLMGS [mammalian NSCaTE_(Cav1.2) peptide] , Kd read as 1800
